target: N-His Ich-1 (Homo sapiens, UniProt P42575); construct: contains Ich-1 amino acid residues 167-435, with an initiator and polyhistidine tag fused to the amino terminus; initiator (Met) + polyhistidine tag (N); made in house; experiment: In vitro proteolysis assay: cleavage of candidate peptide substrates by N-His Ich-1 (reverse phase HPLC); type: biochemical; conditions: 10 μM peptide, 30° C., pH 6.2, 60 minute reaction
Sequence (P42575 184-333): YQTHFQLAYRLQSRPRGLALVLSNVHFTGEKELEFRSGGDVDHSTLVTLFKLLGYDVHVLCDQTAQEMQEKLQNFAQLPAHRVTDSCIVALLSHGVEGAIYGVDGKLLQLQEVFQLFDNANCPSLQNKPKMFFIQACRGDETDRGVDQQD
Sequence (P42575 334-452): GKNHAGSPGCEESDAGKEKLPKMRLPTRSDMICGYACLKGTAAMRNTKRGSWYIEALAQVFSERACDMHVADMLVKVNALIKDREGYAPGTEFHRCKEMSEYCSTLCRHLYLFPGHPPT
Where a SMILES comes first, the peptide text is derived from it.
recorded.endpoint: % Cleavage after 60 minute reaction (%)

molecule	measure.unit	reported.result
CC(=O)N[C@@H](Cc1c[nH]cn1)C(=O)N[C@@H](CO)C(=O)N[C@@H](CC(C)C)C(=O)N[C@@H](CC(=O)O)C(=O)N[C@@H](CC(N)=O)C(=O)N[C@@H](CCCCN)C(=O)N[C@@H](CC(=O)O)C(=O)NCC(=O)N1CCC[C@H]1C(=O)N[C@H](C(=O)N[C@@H](Cc1c[nH]c2ccccc12)C(N)=O)C(C)C [Peptide 4, acetyl-HSLDNKDGPVW-amide] (Ac-HSLDNKDGPVW-NH2)	%	0
CC(=O)N[C@@H](CC(N)=O)C(=O)N[C@@H](CCC(=O)O)C(=O)N[C@@H](C)C(=O)N[C@@H](Cc1ccc(O)cc1)C(=O)N[C@H](C(=O)N[C@@H](Cc1c[nH]cn1)C(=O)N[C@@H](CC(=O)O)C(=O)N[C@@H](C)C(=O)N1CCC[C@H]1C(=O)N[C@H](C(=O)N[C@@H](CCCNC(=N)N)C(=O)N[C@@H](CO)C(=O)N[C@@H](CC(C)C)C(=O)N[C@@H](Cc1ccc(O)cc1)C(N)=O)C(C)C)C(C)C [Peptide 2, acetyl-NEAYVHDAPVRSLY-amide] (Ac-NEAYVHDAPVRSLY-NH2)	%	0
CC(=O)N[C@@H](CCCNC(=N)N)C(=O)NCC(=O)N[C@H](C(=O)N[C@@H](CC(=O)O)C(=O)N[C@@H](CCC(N)=O)C(=O)N[C@@H](CCC(N)=O)C(=O)N[C@@H](CC(=O)O)C(=O)NCC(=O)N[C@@H](CCCCN)C(=O)N[C@@H](CC(N)=O)C(=O)N[C@@H](Cc1c[nH]cn1)C(=O)N[C@@H](Cc1c[nH]c2ccccc12)C(N)=O)C(C)C [Peptide 1, acetyl-RGVDQQDGKNHW-amide] (Ac-RGVDQQDGKNHW-NH2)	%	80
CC(=O)N[C@@H](Cc1c[nH]c2ccccc12)C(=O)NCC(=O)N[C@@H](CC(=O)O)C(=O)N[C@@H](CCC(=O)O)C(=O)N[C@H](C(=O)N[C@@H](CC(=O)O)C(=O)NCC(=O)N[C@H](C(=O)N[C@@H](CC(=O)O)C(=O)N[C@@H](CCC(=O)O)C(=O)N[C@H](C(=O)N[C@@H](Cc1c[nH]c2ccccc12)C(N)=O)C(C)C)C(C)C)C(C)C [Peptide 3, acetyl-WGDEVDGVDEVW-amide] (Ac-WGDEVDGVDEVW-NH2)	%	0
CC[C@H](C)[C@H](NC(=O)CNC(=O)[C@H](CS)NC(C)=O)C(=O)N[C@@H](CCC(=O)O)C(=O)N[C@H](C(=O)N[C@@H](CC(=O)O)C(=O)N[C@@H](CO)C(=O)NCC(=O)N[C@H](C(=O)N[C@@H](CC(=O)O)C(=O)N[C@@H](CC(=O)O)C(=O)N[C@@H](Cc1c[nH]c2ccccc12)C(N)=O)C(C)C)[C@@H](C)O [Peptide 7, acetyl-CGIETDSGVDDW-amide] (Ac-CGIETDSGVDDW-NH2)	%	8
CSCC[C@H](NC(=O)[C@H](CCC(N)=O)NC(=O)[C@H](CC(=O)O)NC(=O)[C@H](CO)NC(=O)[C@H](Cc1ccc(O)cc1)NC(C)=O)C(=O)N[C@@H](CC(=O)O)C(=O)NCC(=O)N[C@@H](Cc1ccccc1)C(=O)N[C@@H](Cc1c[nH]cn1)C(=O)N[C@@H](CC(=O)O)C(=O)N[C@@H](CO)C(=O)N[C@@H](Cc1c[nH]c2ccccc12)C(N)=O [Peptide 6, acetyl-YSDQMDGFHDSW-amide] (Ac-YSDQMDGFHDSW-NH2)	%	0
CSCC[C@H](NC(=O)[C@H](CC(=O)O)NC(=O)[C@H](CCC(=O)O)NC(=O)CNC(C)=O)C(=O)N[C@@H](CCC(N)=O)C(=O)N[C@@H](CC(=O)O)C(=O)N[C@@H](CC(N)=O)C(=O)N[C@@H](CO)C(=O)NCC(=O)N[C@H](C(=O)N[C@@H](Cc1ccc(O)cc1)C(=O)N[C@@H](Cc1c[nH]c2ccccc12)C(N)=O)[C@@H](C)O [Peptide 5, acetyl-GEDMQDNSGTYW-amide] (Ac-GEDMQDNSGTYW-NH2)	%	1
